# TARGET_ENTITY: hCAI isoenzyme purified from human erythrocytes (Homo sapiens)
# Construct: hCAI isoenzyme purified from human erythrocytes; from tissue; host or cells: human erythrocytes
# Sequence (P00915 whole entry): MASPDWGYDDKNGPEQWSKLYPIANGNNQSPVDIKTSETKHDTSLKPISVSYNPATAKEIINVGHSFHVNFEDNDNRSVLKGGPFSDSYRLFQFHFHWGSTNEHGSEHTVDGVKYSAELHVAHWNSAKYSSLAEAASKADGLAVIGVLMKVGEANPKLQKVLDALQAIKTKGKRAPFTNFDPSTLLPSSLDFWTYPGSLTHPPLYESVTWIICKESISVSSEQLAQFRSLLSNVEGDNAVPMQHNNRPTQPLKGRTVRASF
# METHOD: Inhibition of esterase activity (p-nitrophenyl acetate) of purified hCAI; IC50, Ki, inhibition type
# Format: biochemical
# ASSAY_CONDITIONS: [I] 0.015 mM; Lineweaver–Burk; read-out: Ki values
pKi: −log10 of the molar value.
REPORTED_PROPERTY: pKi

CPD_SMILES: O=C([O-])c1ccccc1-c1c2cc(I)c(=O)c(I)c-2oc2c(I)c([O-])c(I)cc12.[Na+].[Na+]
VALUE_REPORTED: 5.54
